Below, each entry is listed alongside its reported GI50.
tested on: UO-31; test: NCI tumour cell line growth inhibition, 48 h
Active and inactive are the calls of the source. No stated cut-off is given here; in the data, active = GI50 up to about 1.1 µM and inactive = higher.

compound: Cc1csc2c1-n1cccc1C2=O
system under test: UO-31
GI50: 43.3 µM (inactive)
//
compound: CC1=CC(=O)/C(=C/NC(=O)NN)C(=O)O1
system under test: UO-31
GI50: > 100 µM (inactive)
//
compound: O=C(N/N=C/c1ccc(Cl)cc1)c1ccccc1Nc1ccccc1C(=O)N/N=C/c1ccc(Cl)cc1
system under test: UO-31
GI50: > 100 µM (inactive)
//
compound: CCSc1nc(N2CCOCC2)c2cn[nH]c2n1
system under test: UO-31
GI50: 21.5 µM (inactive)
//
compound: CC[C@H](CC[C@@H](C)[C@H]1CC[C@H]2[C@@H]3CC=C4C[C@@H](O)CC[C@]4(C)[C@H]3CC[C@]12C)C(C)C [BETA-SITOSTEROL]
system under test: UO-31
GI50: > 100 µM (inactive)
//
compound: [O-][n+]1c2c([n+]([O-])c3ccccc31)CCCCCCCCCC2
system under test: UO-31
GI50: > 100 µM (inactive)
//
compound: CCCCCCCC(CC(=O)O)OC(=O)CC(CCCCCCC)OC1OC(C)C(O)C(O)C1OC1OC(C)C(O)C(O)C1O (configuration not stated)
system under test: UO-31
GI50: > 100 µM (inactive)

###

test system: ACHN; assay: NCI tumour cell line growth inhibition, 48 h
The source made the active and inactive calls. Rule as the data show it: active = GI50 up to about 1.1 µM and inactive = higher.
Possible outcomes: active, inactive

compound: O=C(c1ccc(Cl)cc1)N(C(=S)OC12CC3CC(CC(C3)C1)C2)c1ccccc1
qualitative label: inactive
--
compound: COc1ccc2nc3c([N+](=O)[O-])ccc4c3c(c2c1)N(CCCN(C)C)C(=S)N4CCCN(C)C
qualitative label: inactive
--
compound: COCN1C(=O)[C@@H]2CCCN2C(=O)c2cc(Cl)ccc21
qualitative label: inactive
--
compound: COc1nc(OC)nc(-c2cccc(F)c2)n1
qualitative label: inactive
--
compound: O=C(O)CC1NCc2cc3ccccc3nc21 (centres undefined)
qualitative label: inactive
--
compound: CC(=O)c1cccc(NC(=O)C(=O)Nn2c(N)nnc2N)c1
qualitative label: inactive
--
compound: CCSc1nc(N2CCOCC2)c2cn[nH]c2n1
qualitative label: inactive
--
compound: COc1cc(OC)c(SSCCCCS(=O)O)c(OC)c1
qualitative label: inactive
--
compound: N#Cc1nc(COCc2ccccc2)oc1N
qualitative label: inactive
--
compound: Cc1cccc(-c2cccc(COCc3cccc(-c4cccc(CO)n4)n3)n2)n1
qualitative label: inactive
--
compound: COC(=O)c1c(C(=O)OC)c2cc(C(=O)c3ccccc3)ccn2c1Cl
qualitative label: inactive
--
compound: CCCNc1ncnc2c1cnn2C
qualitative label: inactive
--
compound: O=C1/C(=C/c2ccc(Cl)cc2)CNC/C1=C\c1ccc(Cl)cc1
qualitative label: inactive
--
compound: CC(=O)NC1=C(NCCN(C)C)C(=O)c2ccccc2C1=O
qualitative label: inactive
--
compound: C[C@@](O)(/C=C/[C@H]1CC=CC(=O)O1)[C@@H](C[C@@H](O)\C=C/C=C\C=C\CO)OP(=O)(O)O [FOSTRIECIN SODIUM]
qualitative label: inactive
--
compound: N#CCCN(CCC#N)c1ccc(/C=C2\N=C(c3ccccc3)N(c3ccccn3)C2=O)cc1
qualitative label: inactive
--
compound: NC1C/C(=N\O)c2c(Cl)sc(Cl)c21 (centres undefined)
qualitative label: inactive
--
compound: CC1C[C@H](C)CC(C(O)CC2CC(=O)N(Cc3ccccc3)C(=O)C2)C1O (some centres undefined)
qualitative label: inactive
--
compound: O=C(O)c1ccccc1/C=N/N=C1NCCN1
qualitative label: inactive
--
compound: CSCCC(N)C(=O)NCCNc1ccc(NCCNC(=O)C(N)CCSC)c2c1C(=O)c1ccccc1C2=O (centres undefined)
qualitative label: active
--
compound: C/C(=N\c1cccc(Cl)c1)c1ccncc1
qualitative label: inactive
--
compound: CC(C)OP(=O)(OC(C)C)/C(=N/Nc1ccccc1[N+](=O)[O-])NCCN/C(=N\Nc1ccccc1[N+](=O)[O-])P(=O)(OC(C)C)OC(C)C
qualitative label: inactive
--
compound: CC1CC2C3CC(F)C4=CC(=O)C=CC4(C)C3(F)C(O)CC2(C)C1(O)C(=O)COC(=O)C(C)(C)C (centres undefined)
qualitative label: inactive
--
compound: COC(=O)C1(Cc2ccc3c(c2)CCC3)Cc2ccccc2C1
qualitative label: inactive
--
compound: CCOC(=O)c1c(NC(=O)c2ccc(Br)cc2)sc2c1CCCC2
qualitative label: inactive
--
compound: O=[N+]([O-])c1ccc(Sc2c3ccccc3nc3ccccc23)cc1
qualitative label: inactive
--
compound: CC1(C)C=C(/C=N/Nc2ccc(Br)cc2)C(C#N)=C(O)C1(C#N)C#N
qualitative label: inactive
--
compound: C1=CN2C[n+]3cccc(OCc4ccccc4)c3N=C2C(OCc2ccccc2)=C1
qualitative label: inactive
--
compound: COC(=O)C1OC(O[C@H]2CC[C@]3(C)[C@H]4CC=C5[C@@H]6CC(C)(C)CC[C@]6(C(=O)OC)CC[C@@]5(C)[C@]4(C)CC[C@H]3C2(C)C)C(O)C(O)C1O (some centres undefined)
qualitative label: inactive
